What follows is literature data on IC50 for UniProt:P00533.

Req: Fill in: IC50 of COc1cc(N2CCN(C)CC2)c(C)cc1Nc1ncc(Br)c(Nc2ccc3nc(C4CC4)ccc3c2P(C)(C)=O)n1 is ___
Resp: 79 nM

Req: What would you report for C=CC(=O)Nc1cccc(Nc2nc(Nc3ccc(N4CCOCC4)cc3OC(F)F)ncc2C(F)(F)F)c1 ?
Resp: 10 to 30 nM

Req: Same thing, different compound: CCN1CCC(Nc2ccc3c(c2)/C(=C(\c2cccc(Cl)c2)c2ncc[nH]2)C(=O)N3)CC1
Resp: 50 to 500 nM

Req: // next record CCOc1nn(C)c2c1/C=C/c1n[nH]c3ccc(cc13)-c1cnn(C)c1O[C@@H]1CCN(C2)C1
Resp: 26.8 nM

Req: How about Cc1cc(Nc2ncnc3cnc(N4CCOC5CC54)nc23)ccc1Oc1ccc2c(c1)ncn2C (racemic) ?
Resp: 8860 nM

Req: Continue with CN1CCN(c2ccc3[nH]c(-c4cc(-c5ccc(NC(=O)Nc6ccc(Cl)c(C(F)(F)F)c6)cc5)[nH]n4)nc3c2)CC1
Resp: > 5000 nM

Req: Cool, now CC(C)=CC(=O)c1cccc(Nc2cc(Nc3ccc(Oc4ccccc4)cc3)ncn2)c1
Resp: 10 to 100 nM

Req: Here is the next compound: CCN(CC)Cc1ccc(-c2ccc3ncnc(Nc4ccc(OCc5cccc(F)c5)c(Cl)c4)c3c2)o1
Resp: < 10000 nM

Req: Another compound: C=CC(=O)Nc1cccc(Oc2nc(Nc3ccc(N4CCN(S(C)(=O)=O)CC4)cc3OC)ncc2Cl)c1
Resp: 10 to 30 nM

Req: Here is the next compound: C=CC(=O)Nc1cccc(-c2cccc3cnc(Nc4ccc(NC5CN(CCO)C5)cc4)nc23)c1
Resp: < 100 nM

Req: Similarly, C=C(C)C(=O)N[C@@H]1Cn2c(c(-c3cnc4ccccc4c3)c3c(N)ncnc32)C1=C ?
Resp: 1400 nM

Req: Also need CCN1CCC(Nc2ccc3c(c2)/C(=C(\c2cc(F)cc(F)c2)c2nc4cc(F)ccc4[nH]2)C(=O)N3)CC1 , thanks.
Resp: 50 to 500 nM

###

The entries that follow carry IC50 values tested on Epidermal growth factor receptor (Homo sapiens), drawn from several published reports.

Req: Need IC50, item C=CC(=O)Nc1cccc(-n2cnc3cnc(Nc4ccc(N5CCN(C)CC5)cc4)nc32)c1
Resp: > 0.1 µM

Req: Continue with Cc1cc(Nc2ncnc3sc4c(c23)CCN(C(=O)/C=C/CN(C)C)C4)ccc1Oc1cccc(B(O)O)c1
Resp: 1 to 10 µM

Req: Further, for CN(C/C=C/C(=O)N1CC[C@@H](Nc2n[nH]c3nccc(Oc4ccc(C(=O)Nc5cc(C6CC6)ccn5)cc4)c23)C1)C1CC1 ?
Resp: 1 to 10 µM

###

// molecules with IC50 on Epidermal growth factor receptor (Homo sapiens), multi-source literature

Req: Bench note: what IC50 did Fc1c(Cl)cccc1Nc1ncnc2cc3c(cc12)OCCO3 show?
Resp: ~8 nM

Req: Next molecule up: C=CC(=O)Nc1cccc(Oc2nc(Nc3cc(OC)c(OC)c(OC)c3)ncc2F)c1
Resp: 1000 to 10000 nM

Req: Also C=CC(=O)Nc1cc(-c2c(-c3ccc(N4CCN(C)CC4)cc3)[nH]c3ncc(NC(C)=O)cc23)ccc1C , if possible.
Resp: ≤ 100 nM

Req: Could you do the same for CCC(=O)N1CC[C@@H](Nc2n[nH]c3nccc(Oc4ccc(C(=O)Nc5cc(C(F)(F)F)ccn5)cc4)c23)C1 , please?
Resp: 1000 to 10000 nM

Req: Please do the same for CCc1cc(Nc2ncc(Br)c(Nc3ccc(-c4ccc(N(C)C)nn4)cc3P(C)(C)=O)n2)c(OC)cc1N1CCC(N2CCN(C)CC2)CC1 as well.
Resp: 28.8 nM

Req: Same question, CN1CCN(Cc2ccc3[nH]/c(=N\C(=O)c4cncc(Oc5cccc(O)c5C=O)c4)n(CC(C)(C)O)c3c2)CC1 this time
Resp: 5.33 nM

Req: Moving on to the next molecule: C=CC(=O)N1CCC[C@@H](n2nc(-c3ccc(Oc4cccnc4C(N)=O)cc3)c3cncc(Cl)c32)C1
Resp: 820 nM

Req: Also check C=CC(=O)N1CCC[C@@H](Nc2nc(Nc3ccc4c(c3)OCCOCCOCCO4)ncc2F)C1
Resp: > 1000 nM

Req: Again, but for COc1cc(N2CCC(N3CCN(C)CC3)CC2)ccc1Nc1ncc(Cl)c(Nc2cccc3c2N(S(C)(=O)=O)CC3C)n1 (stereo not shown)
Resp: 1.1 nM

Req: One more molecule: C=CC(=O)Nc1cc(-c2c(-c3cccc(C(=O)NCCCN4CCN(CC)CC4)c3)[nH]c3nccc(Cl)c23)ccc1C
Resp: ≤ 100 nM

Req: Record: Cc1ccc(Oc2ccc(Nc3ncnc4sc5c(c34)CCN(C(=O)/C=C/CN3CC4CCC(C3)O4)C5)cc2C)cn1
Resp: > 10000 nM

Req: Same for C[C@H](Nc1ncnc2ccc(-c3cnc(Cl)c(NS(C)(=O)=O)c3)cc12)c1ccccc1
Resp: > 200 nM

Req: Then what about the molecule CC(C)c1ccc(N2CC(CS(C)(=O)=O)C2)c2cnc(Nc3ccnc(-c4cccc(C=O)c4O)n3)cc12 ?
Resp: > 1000 nM

###

We begin with IC50 values for Epidermal growth factor receptor (Homo sapiens), as collected from the published literature.

Req: What does the record list as IC50 for C[C@H]1CN(C)Cc2c(c(OCC(F)(F)F)nn2CCO)/C=C/c2n[nH]c3cc(F)c(cc23)-c2cnn(C)c2O1 ?
Resp: > 1000 nM

Req: Same question for CC#CC(=O)N1CCC[C@@H](n2nc(-c3ccc(C(=O)Nc4ccccn4)cc3)c3c(N)ncnc32)C1 please.
Resp: ≤ 10 nM

Req: Can you handle C=CC(=O)Nc1cccc(Nc2cc(Nc3cccc(Br)c3)ncn2)c1 next?
Resp: ≤ 10 nM

Req: And the next one, C=CC(=O)Nc1cc(-c2c(-c3ccc(N4CCN(C)CC4)cc3)[nH]c3ncc(C(=O)NC4CCCCC4)cc23)ccc1C ?
Resp: ≤ 100 nM

Req: Also C=CC(=O)Nc1cc(CN2CCOCC2)cc(Nc2ncc(Cl)c(Nc3ccc4ccccc4c3)n2)c1 , if possible.
Resp: > 1000 nM

Req: Field entry: C=CC(=O)Nc1cccc(Nc2nc(Nc3ccc4c(c3)OC[C@H]3CN(CC(F)(F)F)CCN43)ncc2C(F)(F)F)c1
Resp: < 500 nM

Req: # repeat for CN(C)C1CCN(c2ccc(Nc3ncc(Cl)c(Nc4cccc5c4N(S(C)(=O)=O)CC5)n3)c3c2OCO3)CC1
Resp: 4.2 nM

Req: How about this molecule: CCN1CCN(C/C=C/C(=O)N2CCc3c(sc4ncnc(Nc5ccc(Oc6ccc(C)nc6)c(C)c5)c34)C2)CC1
Resp: > 10000 nM

Req: And what about the molecule COc1cc2ncnc(NCc3ccc(F)c(F)c3)c2cc1OCCCCCCC(=O)NO ?
Resp: 100 to 1000 nM

Req: Can you check CC(C)c1nc(-c2ccc(F)c(NS(=O)(=O)c3c(F)cccc3F)c2)c(-c2ccnc(Nc3ccc(N4CCOCC4)nc3)n2)s1 next?
Resp: 100 to 1000 nM

Req: Now the molecule CC(C)Oc1cc2ncnc(Nc3ccc(F)c(Cl)c3)c2c2c1OCCO2
Resp: < 50 nM

Req: Queued: C#Cc1cccc(Nc2ncnc3nc(Nc4ccc(CN5CCN(C)CC5)cc4)sc23)c1
Resp: 18.2 nM

###

Literature compilation of pIC50 measurements on Epidermal growth factor receptor (Homo sapiens, UniProt P00533).
pIC50: −log10 of the molar value.

Req: Request - read-out pIC50 | tested on Epidermal growth factor receptor (Homo sapiens, UniProt P00533) | molecule CN(C/C=C/C(=O)N1CC[C@@H](Oc2n[nH]c3nccc(Oc4ccc(Oc5ccccc5)cc4)c23)C1)C1CC1
Resp: > 7.00

Req: Try this molecule next: C=CC(=O)N1CC[C@@H](n2c(Cl)c(-c3ccc(Cl)cc3)c3c(N)ncnc32)C1
Resp: > 7.00

Req: And for CCOC(C)Oc1cc2ncnc(Nc3ccc(C)c(C#N)c3)c2c2c1OCCO2 (centres unmarked) ?
Resp: > 6.00

Req: # iterate: C#Cc1cccc(Nc2ncnc3ccc(OCCCC(=O)NO)cc23)c1
Resp: 6.00 to 7.00

Req: What do you get for CCOc1ccc(Nc2nccc(-c3sc(C(C)C)nc3-c3ccc(F)c(NS(=O)(=O)c4c(F)cccc4F)c3)n2)cc1N1CCN(CCF)CC1 ?
Resp: > 7.00

Req: For CCNC(=O)N1CCC[C@@H](Nc2n[nH]c3nccc(Oc4ccc(-c5nc6cccc(C)c6o5)cc4)c23)C1 then?
Resp: < 5.00

Req: Same question, CCN(CC)C/C=C/C(=O)N1CCOc2c1ccc1ncnc(Nc3ccc(Oc4ccn5ncnc5c4)c(Cl)c3)c21 this time
Resp: 6.30 to 7.30

Req: Ok, now CCN1CCC(Nc2ccc3c(c2)/C(=C(/c2ncc[nH]2)c2ccc(F)cc2F)C(=O)N3)CC1
Resp: 6.30 to 7.30
